target: feline FcRn complex (FcRn-α subunit and β-microglobulin) (feline); experiment: SPR (Biacore), FcRn on SA chip, pH 6
property: log10(Kd) (log10 of the value in nM)
Reminder: these figures are log10 of reported Kd, in nM before transformation.

feline IgG1a mutant ID No. 360: S252Y, S434R, D312H (antibody, part only; not given: Variable domains, not shown: another chain or arm of the molecule) constant: ASTTAPSVFPLAPSCGTTSGATVALACLVLGYFPEPVTVSWNSGALTSGVHTFPAVLQASGLYSLSSMVTVPSSRWLSDTFTCNVAHPPSNTKVDKTVRKTDHPPGPKPCDCPKCPPPEMLGGPSIFIFPPKPKDTLYISRTPEVTCLVVDLGPDDSDVQITWFVDNTQVYTAKTSPREEQFNSTYRVVSVLPILHQHWLKGKEFKCKVNSKSLPSPIERTISKAKGQPHEPQVYVLPPAQEELSRNKVSVTCLIKSFHPPDIAVEWEITGQPEPENNYRTTPPQLDSDGTYFVYSKLSVDRSHWQRGNTYTCSVSHEALHRHHTQKSLTQSPGK: 0.04

Output log10(Kd) of feline IgG1a mutant ID No. 268: S252F, S434H, Q311W (antibody, part only; not given: Variable domains, not shown: another chain or arm of the molecule) constant: ASTTAPSVFPLAPSCGTTSGATVALACLVLGYFPEPVTVSWNSGALTSGVHTFPAVLQASGLYSLSSMVTVPSSRWLSDTFTCNVAHPPSNTKVDKTVRKTDHPPGPKPCDCPKCPPPEMLGGPSIFIFPPKPKDTLFISRTPEVTCLVVDLGPDDSDVQITWFVDNTQVYTAKTSPREEQFNSTYRVVSVLPILHWDWLKGKEFKCKVNSKSLPSPIERTISKAKGQPHEPQVYVLPPAQEELSRNKVSVTCLIKSFHPPDIAVEWEITGQPEPENNYRTTPPQLDSDGTYFVYSKLSVDRSHWQRGNTYTCSVSHEALHHHHTQKSLTQSPGK 1.16

Output log10(Kd) of feline IgG1a mutant ID No. 251: S428M, Q311Y (antibody, part only; not given: Variable domains, not shown: another chain or arm of the molecule) constant: ASTTAPSVFPLAPSCGTTSGATVALACLVLGYFPEPVTVSWNSGALTSGVHTFPAVLQASGLYSLSSMVTVPSSRWLSDTFTCNVAHPPSNTKVDKTVRKTDHPPGPKPCDCPKCPPPEMLGGPSIFIFPPKPKDTLSISRTPEVTCLVVDLGPDDSDVQITWFVDNTQVYTAKTSPREEQFNSTYRVVSVLPILHYDWLKGKEFKCKVNSKSLPSPIERTISKAKGQPHEPQVYVLPPAQEELSRNKVSVTCLIKSFHPPDIAVEWEITGQPEPENNYRTTPPQLDSDGTYFVYSKLSVDRSHWQRGNTYTCSVMHEALHSHHTQKSLTQSPGK 0.77

Output log10(Kd) of feline IgG1a mutant ID No. 314: Q311R, D312P, L314K (antibody, part only; not given: Variable domains, not shown: another chain or arm of the molecule) constant: ASTTAPSVFPLAPSCGTTSGATVALACLVLGYFPEPVTVSWNSGALTSGVHTFPAVLQASGLYSLSSMVTVPSSRWLSDTFTCNVAHPPSNTKVDKTVRKTDHPPGPKPCDCPKCPPPEMLGGPSIFIFPPKPKDTLSISRTPEVTCLVVDLGPDDSDVQITWFVDNTQVYTAKTSPREEQFNSTYRVVSVLPILHRPWKKGKEFKCKVNSKSLPSPIERTISKAKGQPHEPQVYVLPPAQEELSRNKVSVTCLIKSFHPPDIAVEWEITGQPEPENNYRTTPPQLDSDGTYFVYSKLSVDRSHWQRGNTYTCSVSHEALHSHHTQKSLTQSPGK 3.33

Output log10(Kd) of feline IgG1a mutant ID No. 342: S252Y, S428M, S434F, D312P (antibody, part only; not given: Variable domains, not shown: another chain or arm of the molecule; small tags and cut ends) constant: ASTTAPSVFPLAPSCGTTSGATVALACLVLGYFPEPVTVSWNSGALTSGVHTFPAVLQASGLYSLSSMVTVPSSRWLSDTFTCNVAHPPSNTKVDKTVRKTDHPPGPKPCDCPKCPPPEMLGGPSIFIFPPKPKDTLYISRTPEVTCLVVDLGPDDSDVQITWFVDNTQVYTAKTSPREEQFNSTYRVVSVLPILHQPWLKGKEFKCKVNSKSLPSPIERTISKAKGQPHEPQVYVLPPAQEELSRNKVSVTCLIKSFHPPDIAVEWEITGQPEPENNYRTTPPQLDSDGTYFVYSKLSVDRSHWQRGNTYTCSVMHEALHFHHTQKSLTQSPGK -2.20

Output log10(Kd) of feline IgG1a mutant ID No. 310: P247V, T250Q, S252H (antibody, part only; not given: variable domains and light chain, not shown: another chain or arm of the molecule; small tags and cut ends) constant: ASTTAPSVFPLAPSCGTTSGATVALACLVLGYFPEPVTVSWNSGALTSGVHTFPAVLQASGLYSLSSMVTVPSSRWLSDTFTCNVAHPPSNTKVDKTVRKTDHPPGPKPCDCPKCPPPEMLGGPSIFIFPPKVKDQLHISRTPEVTCLVVDLGPDDSDVQITWFVDNTQVYTAKTSPREEQFNSTYRVVSVLPILHQDWLKGKEFKCKVNSKSLPSPIERTISKAKGQPHEPQVYVLPPAQEELSRNKVSVTCLIKSFHPPDIAVEWEITGQPEPENNYRTTPPQLDSDGTYFVYSKLSVDRSHWQRGNTYTCSVSHEALHSHHTQKSLTQSPGK 0.91

Output log10(Kd) of feline IgG1a mutant ID No. 296: S252Y, S428Y, Q311W, S434Y (antibody, part only; not given: Variable domains, not shown: another chain or arm of the molecule; small tags and cut ends) constant: ASTTAPSVFPLAPSCGTTSGATVALACLVLGYFPEPVTVSWNSGALTSGVHTFPAVLQASGLYSLSSMVTVPSSRWLSDTFTCNVAHPPSNTKVDKTVRKTDHPPGPKPCDCPKCPPPEMLGGPSIFIFPPKPKDTLYISRTPEVTCLVVDLGPDDSDVQITWFVDNTQVYTAKTSPREEQFNSTYRVVSVLPILHWDWLKGKEFKCKVNSKSLPSPIERTISKAKGQPHEPQVYVLPPAQEELSRNKVSVTCLIKSFHPPDIAVEWEITGQPEPENNYRTTPPQLDSDGTYFVYSKLSVDRSHWQRGNTYTCSVYHEALHYHHTQKSLTQSPGK -0.26

Output log10(Kd) of feline IgG1a mutant ID No. 304: D399M, D401R (antibody, part only; not given: variable domains and light chain, not shown: another chain or arm of the molecule; small tags and cut ends) constant: ASTTAPSVFPLAPSCGTTSGATVALACLVLGYFPEPVTVSWNSGALTSGVHTFPAVLQASGLYSLSSMVTVPSSRWLSDTFTCNVAHPPSNTKVDKTVRKTDHPPGPKPCDCPKCPPPEMLGGPSIFIFPPKPKDTLSISRTPEVTCLVVDLGPDDSDVQITWFVDNTQVYTAKTSPREEQFNSTYRVVSVLPILHQDWLKGKEFKCKVNSKSLPSPIERTISKAKGQPHEPQVYVLPPAQEELSRNKVSVTCLIKSFHPPDIAVEWEITGQPEPENNYRTTPPQLMSRGTYFVYSKLSVDRSHWQRGNTYTCSVSHEALHSHHTQKSLTQSPGK 0.73

Value source: patent US20240400708A1
